assay remarks: Quantitative highthroughput screen to assess conditional lethalithy of SEM cells grown in RPMI1640 with dialyzed fetal bovine serum (RPMI+ds) (AID 1963884); note: nearly all actives have a fitted effect of over 35% in size; note: potency is the fitted concentration of half-maximal effect
condition set: SEM B-ALL cells, RPMI+dialyzed FBS, CellTiter-Glo viability, 48 h; series mostly up to 45.8 µM
Results filed as inconclusive are left out. Active and inactive are the calls of the source. Calls come from the whole dose curve; as a rule, active = well fitted cell-killing curve with a large enough effect; inconclusive = small, poorly fitted or top-dose-only effect, or effect the other way; inactive = no such curve, though single readings can be large or run the other way.
observed property: Potency

> print(dat)
                                    molecule  observed.property       assay.value
 1  Cc1ccc(S(=O)(=O)NC(=O)NN2CC3CCCC3C2)cc1 (stereo not given)            Potency  2.96 µM (active)
 2  O=C(CCCCCCC(=O)Nc1ccc([C@H]2O[C@@H](CSc3nc(-c4ccccc4)c(-c4ccccc4)o3)C[C@@H](c3ccc(CO)cc3)O2)cc1)NO            Potency  6.62 µM (active)
 3  O=c1c(O)c(-c2cc(O)c(O)c(O)c2)oc2cc(O)cc(O)c12            Potency          inactive
 4  Clc1ccc(C(Cn2ccnc2)OCc2c(Cl)cccc2Cl)c(Cl)c1 (stereo not given)            Potency          inactive
 5  O=C(Nc1ccccc1-c1cn2c(CN3CCNCC3)csc2n1)c1cnc2ccccc2n1            Potency  13.2 µM (active)
 6  C=C1c2cccc(O)c2C(O)=C2C(=O)[C@@]3(O)C(O)=C(C(N)=O)C(=O)[C@@H](N(C)C)[C@@H]3[C@@H](O)[C@H]12            Potency          inactive
 7   O=C1Nc2ccc(I)cc2C1=Cc1cc(Br)c(O)c(Br)c1            Potency  18.7 µM (active)
 8             Cc1ccc2nc(NCCN)c3ncc(C)n3c2c1            Potency  20.9 µM (active)
 9                         NCCc1ccc(O)c(O)c1            Potency  26.4 µM (active)
10  O=C1CCCC(=O)C1C(=O)c1ccc(C(F)(F)F)cc1[N+](=O)[O-]            Potency          inactive
